- assay_info: NCI Yeast Anticancer Drug Screen. Data for the cln2 rad14 strain (AID 165);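 note: 0% = growth equal to vehicle treated cultures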
- cond: S. cerevisiae cln2 rad14 strain, at 50.0 µM
Compounds without any hit were thinned out: in the full panel of roughly 79,000, 15% have a hit. The source made the active and inactive calls. Cut-off read from the data, not from the text of the source: active = growth inhibition above about 70%; inactive = the rest.
// allowed return values: True = active, False = inactive

Please state the recorded outcome for this compound: CC(C)(C)[OH+][O-].[O-]c1ccc(Cl)cc1C=Nc1ccc(Cl)cc1[O-].[O]=[V] True

Please state the recorded outcome for this compound: O=C(Nc1ccc2c(c1)Cc1c-2ccc([N+](=O)[O-])c1F)C(F)(F)F False

Please state the recorded outcome for this compound: CN(NC(=O)/C(=C/c1ccc(O)cc1)NC(=O)c1ccccc1)c1ccnc2cc(Cl)ccc12 False

Please state the recorded outcome for this compound: O/N=C/C1c2ccccc2-c2ccccc21 True

Please state the recorded outcome for this compound: Clc1nc(C(Cl)Cl)nc2sc3c(c12)CCCC3 True

Please state the recorded outcome for this compound: O=C1C=CC(=O)N1c1ccc(I)cc1 True

Please state the recorded outcome for this compound: O=C1C=CC(=O)N1c1ccc2c(c1)OCO2 True

Please state the recorded outcome for this compound: Nc1cc(S(N)(=O)=O)ccc1SSc1ccc(S(N)(=O)=O)cc1N False

Please state the recorded outcome for this compound: COC(=O)c1oc([N+](=O)[O-])c(Cl)c1Cl True

Please state the recorded outcome for this compound: S=P(N1CC1)(N1CC1)N1CC1 False

Please state the recorded outcome for this compound: CCC(=O)Oc1ccc(/C=N/NC(N)=S)nc1 False

Please state the recorded outcome for this compound: CC(C)c1[nH]nc(C(N)=O)c1N=NN(C)C False

====

- assay_info: NCI Yeast Anticancer Drug Screen. Data for the rad14 strain (AID 159);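 note: 0% = growth of vehicle-treated control cultures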
- cond: S. cerevisiae rad14 strain growth inhibition; at 100.0 µM
This is part of a sample that, as a whole, favours compounds with a hit. Of some 79,000 tested, about 15% had one in any assay. Active and inactive are the calls of the source. Cut-off read from the data, not from the text of the source: active = growth inhibition above about 70%; inactive = the rest.
// allowed return values: y = active, n = inactive

Please state the recorded outcome for this molecule: CC1OC(OC2CCCc3c(O)c4c(c(O)c32)C(=O)c2ccccc2C4=O)CC(N)C1O (stereo not given) y

Please state the recorded outcome for this molecule: COc1cc(N(C)C)ccc1/C=C\c1ccnc2ccccc12 n

Please state the recorded outcome for this molecule: CC(C)(C)c1ccc(O)c(C(c2ccc([N+](=O)[O-])cc2)c2cc(C(C)(C)C)ccc2O)c1 y

Please state the recorded outcome for this molecule: O=C(O)c1ccccc1.[Ag] y

Please state the recorded outcome for this molecule: O=C1OC2C(O)COC2(OCc2c[nH]c3ccccc23)C1O (stereo not given) (tested in a mixture with another compound) y

Please state the recorded outcome for this molecule: CN(Cc1cnc2nc(N)nc(N)c2n1)c1ccc(C(=O)NC(CCC(=O)O)C(=O)O)c2ccccc12 (stereo not given) y

Please state the recorded outcome for this molecule: COc1ccc(N2CN(C)CSC2=S)cc1 n

Please state the recorded outcome for this molecule: OCCNCCOc1ccc(/C(=C(/Cl)c2ccccc2)c2ccccc2)cc1 y

Please state the recorded outcome for this molecule: O=C(O)c1cccc2cccc(-c3c4ccc(=O)cc-4oc4cc(O)ccc34)c12 y

Please state the recorded outcome for this molecule: S=c1cn[nH]c2ccc(Br)cc12 n

====

- assay_info: NCI Yeast Anticancer Drug Screen. Data for the sgs1 strain (AID 173);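 note: 0% = growth of vehicle-only control cultures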
- cond: S. cerevisiae sgs1 mutant, at 100.0 µM, stronger effect = higher value
Compounds without any hit were thinned out: in the full panel of roughly 79,000, 15% have a hit.
metric_name: growth inhibition (%)
Please respond with the number in % and leave the unit unwritten.

Name the recorded growth inhibition of the molecule listed here: CC1CCC2(C(=O)O)CCC3(C)C(=CCC4C5(C)CC(O)C(O)C(C)(CO)C5C(O)CC43C)C2C1C (configuration not stated) 95

Name the recorded growth inhibition of the molecule listed here: O=C1C=CC(=O)N1c1ccc2c(c1)OCO2 100

Name the recorded growth inhibition of the molecule listed here: CC[C@@]1(OC(=O)CN(C)C)C(=O)OCc2c1cc1n(c2=O)Cc2cc3c(N)cccc3nc2-1 64

Name the recorded growth inhibition of the molecule listed here: ClCCn1c(CCl)nc2ccc(Cl)cc21 98

Name the recorded growth inhibition of the molecule listed here: CC(=O)C1=C(C)O/C(=C/c2cccc(Cl)c2)C1=O 95

Name the recorded growth inhibition of the molecule listed here: OC(CN1CCCCC1)c1cc(Cl)c(Cl)c(Cl)c1 (configuration not stated) 37

Name the recorded growth inhibition of the molecule listed here: O=C(O)c1cccc2cccc(-c3c4ccc(=O)cc-4oc4cc(O)ccc34)c12 95

# credit: PubChem BioAssay (NCI)
